Molecular target: T1, Human Siglec-10 (human, UniProt Q96LC7 17-697)
T1 construct: Expressed on transfected CHO cells; also called HuSiglec-10
T1 sequence: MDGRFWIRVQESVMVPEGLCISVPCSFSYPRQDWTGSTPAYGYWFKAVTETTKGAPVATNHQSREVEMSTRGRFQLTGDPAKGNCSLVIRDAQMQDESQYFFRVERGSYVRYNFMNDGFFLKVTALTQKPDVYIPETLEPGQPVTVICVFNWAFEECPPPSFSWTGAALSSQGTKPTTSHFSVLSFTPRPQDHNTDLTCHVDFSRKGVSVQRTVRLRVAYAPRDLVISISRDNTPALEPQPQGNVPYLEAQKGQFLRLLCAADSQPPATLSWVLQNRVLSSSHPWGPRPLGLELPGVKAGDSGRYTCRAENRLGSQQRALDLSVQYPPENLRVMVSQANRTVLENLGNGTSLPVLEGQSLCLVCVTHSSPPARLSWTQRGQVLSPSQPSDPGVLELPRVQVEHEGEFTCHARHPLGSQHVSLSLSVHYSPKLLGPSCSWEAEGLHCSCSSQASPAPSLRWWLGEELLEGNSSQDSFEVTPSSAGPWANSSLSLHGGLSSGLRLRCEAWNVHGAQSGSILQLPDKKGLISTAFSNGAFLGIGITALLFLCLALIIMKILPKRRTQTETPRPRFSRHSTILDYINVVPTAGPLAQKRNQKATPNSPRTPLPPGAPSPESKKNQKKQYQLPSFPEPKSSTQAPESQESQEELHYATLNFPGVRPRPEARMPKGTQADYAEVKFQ
Assay: flow cytometry, CHO transfectants
measure: binding result

mAb2 (antibody, human IgG1, V domains shown) VH: EVQLQESGPGLVKPSQSLSLTCTVTGYSITGGFAWNWIRQFPGNTLEWMGYIGYGGSTSYNPSLNSRISITRDTSKNHFFLQFNSVTTEDSATYYCARGDYLFAYWGQGTLVTVSA VL: DIVMTQSHKFMSTSVGDRVSITCKASQDVNTAVAWYQQKPGQSPKLLIYSASYRYTGVPDRFTGSGSGTDFTFTISSVQAEDLAVYYCQQHYSTPRTFGGGTKLEIK ... no binding
mAb1 (antibody, human IgG1, V domains shown) VH: DVQLQESGPGLVKPSQSLSLTCTVTGYSITGGFAWNWIRQFPGNTLEWMGYIGYGGSTSYNPSLNSRISITRDTSKNHFFLQFNSVTTDDSATYYCARGDYLFAYWGQGTLVTVSA VL: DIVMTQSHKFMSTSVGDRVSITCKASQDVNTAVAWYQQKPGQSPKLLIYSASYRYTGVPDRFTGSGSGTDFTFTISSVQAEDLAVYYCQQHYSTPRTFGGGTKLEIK ... no binding
